test system: K4 kissing-loop RNA reporter; experiment: apparent KD of K4 kissing-loop reporter; higher = weaker reporter binding; settings: Eterna round: R107; input ligand: arginine 13.2 mM
Documented apparent KD of K4 kissing-loop reporter across a set of sequences
Could you give me the number in µM? Just the number is fine.

Example results:
chain="GGUGCUGUCUGUGCCGCCCUCCUCGUCCCUCGAGGACCGGUACGGCCGCCACUCGAGUGAUGUUCGGGUAGCCAUCCCUGCUAGC [Bdazzled - #19 Exc. Tryptophan A]" quantity_kind="apparent KD of K4 kissing-loop reporter" unit_annotation=µM value_observed=0.666
chain="GCUCAGGAGUGAUGUUCCAAGUGGUGUUAACGAGGACCGGUACGGCCGCCACUCGAUACGGCCGGACCGUAGGAUAAACUAGAGC [Same State - Tryptophan A (Freestyle 11)]" quantity_kind="apparent KD of K4 kissing-loop reporter" unit_annotation=µM value_observed=0.175
chain="ACGUCCGGGUUAAUCGUGGGCGUGGUGGAUACCAGUUCUUCAAUGAACCCUUGGCAGCCACGUGAGUGAUGUUCACGUGCGAUGA [#15 K4 Theophylline A Exclusion]" quantity_kind="apparent KD of K4 kissing-loop reporter" unit_annotation=µM value_observed=0.0833

Prompt line: Which measured apparent KD of K4 kissing-loop reporter value corresponds to UGUCAUUGGUCGGCCGCCACUAGGACCGGGUUUUGCCUAGUGAUGUUAGUAUGAACGGCCGCCACUAGGACCGGGACCGAUGACU [KL-SSTryp-B26 #DoubleAptamer] ?
Response line: 0.279

Prompt line: Endpoint output: apparent KD of K4 kissing-loop reporter of AGCCAGCGUACAUCACUCUGGCUGCUGGAUACCAGCUCGGAAACGAGCCCUUGGCAGCCAGAACUUGCAGUGAUGUUGCAAGUAA [Design12] . Value?
Response line: 0.276

Prompt line: // query apparent KD of K4 kissing-loop reporter value for entry GGAUGCAUUUUGGAUACCAGUCUAGUGAUGUUAGACUGAUAAUAACGGGCAGCGUUGGCAGACCCUUGGCAGCCAAAAUACUUAA [theeternabot_exclusion_KL_Theo_B_33]
Response line: 0.0646

Prompt line: Find the recorded apparent KD of K4 kissing-loop reporter belonging to UGCAGUGAUGUUGCUAUUUUUCUUGAUUAACGAGGACCGGUACGGCCGCCACUCGAUUUCUCUCUAAUCCAGUAUGUUGUUUGAU [whbob_EX_Tryp_A_t4] and report it.
Response line: 0.139

====

system: MS2 coat protein; test: apparent KD of MS2 coat protein; designed switch direction (-1 OFF switch, 1 ON switch): 1; higher = weaker reporter binding; settings: input ligand: microRNA oligo, concentration not stated
quantity_kind: apparent KD of MS2 coat protein (nM)
Field: numeric (nM). Do not append units.

Recorded results for 3 sequences are shown here.
chain="GGUCGGACUCACAUGAGGAUCACCCAUGUUGGCGAAAGCCGGCAGGAUAUCUGUCCGAAAAGGUCAGAGAAGGGUCAACCGACC [Fiskers NG3ss - 59] (Eterna round: R96, puzzle: Same State NG 3)" quantity_kind="apparent KD of MS2 coat protein" value_observed=82.4
chain="GUACAGAUCAGAGGAUAUCACGUCGAAUAGACGUGAGAAGGCUGAUCACACAUGAAUAUUAGUACAUGAGGAUCACCCAUGUAC [SSNG1/15-A1] (Eterna round: R96, puzzle: Same State NG 1)" quantity_kind="apparent KD of MS2 coat protein" value_observed=12.8
chain="GUGGUCAGACAUGAGGAUCACCCAUGUGGAAUAAAUAACAGACAGGAUAUCAAAUAUAGGAUAUAUGAGAAGGGUCGAUUGGUG (Eterna round: R96, puzzle: Same State NG 3)" quantity_kind="apparent KD of MS2 coat protein" value_observed=81

Then this sequence:
Prompt line: What value of apparent KD of MS2 coat protein has been reported for the following sequence? GAGGGACAGACCAACAUGAGGAUCACCCAUGUCCUCGCAGGUCAGGAUAUCCGUCCAACAGGCAAGGAGAAGGGACGGUGAACC (Eterna round: R96, puzzle: Same State NG 3)
Response line: 1200

====

test system: K4 kissing-loop RNA reporter; assay: apparent KD of K4 kissing-loop reporter; higher = weaker reporter binding; conditions: Eterna round: R107; input ligand: theophylline 20 uM;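 also: bound reporter read as fluorescence of individual clusters on recovered sequencing chips by microscopy, with normalized cluster intensities fitted with a binding model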
quantity_kind: apparent KD of K4 kissing-loop reporter (µM)
# unit: µM | format: bare number

The examples below pair each entry with its known result.
chain="UCGGCGGAGUGAUGUUCCUAUGUCCAAGAUACCAGUCUAUGAACGGACCCUUGGCAGCUUCCAUUAGGUUACUAUUUAGACUCAU [theeternabot_exclusion_KL_Theo_A_10]" value_observed=0.248
chain="GACAACAGGGUGAGACUCACGGCGCCAGAAGGAGCGGUGAUUCCACCAGGUAGGUCGCUGGCCCAGUGAUGUUGGGCUUUGUGUC [Onoran]" value_observed=0.133
chain="GGCGGCUGCGCGGAAGCGCAGCCGGCCGAUACCAGCGCGACGGCGCGCCCUUGGCAGCGGCGCCGAGUGAUGUUCGGCCUGCCGU [#2 Same State - Theophylline A Attempt #21 (HarryS)]" value_observed=0.124
chain="AUGCGCGCGGCGGCCGCCACUCGCAUGAGAGUGAUGUUCUCGCCGUGCCCGCAAGGGUGCGGUGUGAGGACCGGGCCGGGCUGCG [#2 Same State - Tryptophan B Attempt #19 (HarryS)]" value_observed=0.154
chain="UAAGAAUAAGUAGCAGUGAUGUUGCUACUACGAGGACCGGUACGGCCGCCACUCGAGCCGUACCAUAACAUCACUGAGGUACGAA [(H1)-(H2)-(Trp1)-(Trp2)-(T)'-(H)'-(T)'']" value_observed=0.292

Turning now to a further record.
Prompt line: apparent KD of K4 kissing-loop reporter for UGGUUUAGAAGUGAUGUUUCGAUAAGUGAUACCAGACAAAAGAAAGUCCCUUGGCAGCACAAUGAUGCCAAGGAAACGGCAUGAU [Same State Theophylline A GF 1] ?
Response line: 0.127

====

test system: MS2 coat protein; assay: apparent KD of MS2 coat protein; designed switch direction (-1 OFF switch, 1 ON switch): 1; higher = weaker reporter binding; conditions: input ligand: microRNA oligo, concentration not stated
quantity_kind: apparent KD of MS2 coat protein (nM)
# output: bare number, implied unit nM

Example cases with answers are listed next.
chain="AAGAAAGACGCAGGAUAUCAGUGCAAACCGCACUGAGAAGGGUGAGACAUGAGGAUCACCCAUGUAACACGGCAAAACACCGUG [Teinre] (Eterna round: R96, puzzle: Same State NG 1)" target_desc="MS2 coat protein" quantity_kind="apparent KD of MS2 coat protein" value_observed=49.3
chain="AUACAUGAGGAUCACCCAUGUAAUUAAUUAAUUAAUAAGAUCAAGGAUAUCAGCUCGAAUAGAGCUGAGAAGGUGAUCACAUGU [SSNG3/21-D1] (Eterna round: R96, puzzle: Same State NG 3)" target_desc="MS2 coat protein" quantity_kind="apparent KD of MS2 coat protein" value_observed=177
chain="AGAGGAGGAGCAGGAUAUGCGAAGAAGAACGUGGUAGAAGGGCUCAUGCGAUGACAUGAGGAUCACCCAUGUACCUCGCGAGGA [AK SSNG1-V2-9] (Eterna round: R96, puzzle: Same State NG 1)" target_desc="MS2 coat protein" quantity_kind="apparent KD of MS2 coat protein" value_observed=130
chain="UGGUACAUGGGAGGAUAUCAUGUAGACAUGAGGAUCACCCAUGUAGCCAUGGAGACAUGGGAGAAUGAGAAGGCCCAUGUACCU [JL SSNG1 3.54] (Eterna round: R96, puzzle: Same State NG 2)" target_desc="MS2 coat protein" quantity_kind="apparent KD of MS2 coat protein" value_observed=14.1
chain="UAAAGAUCGCGAGGAUAUCGCGAGGAUCACCCGUGAGAAGGCGCAGAGCCGAGGAUCACCCGGCUGAUCCUGAGGAGGAGGUAA (Eterna round: R96, puzzle: Same State NG 1)" target_desc="MS2 coat protein" quantity_kind="apparent KD of MS2 coat protein" value_observed=410
chain="GCAAAGGCGGUAGGAUAUCUAGGAUAUGGGAAAGACUAAGUCUGUAGGUCACCUAACCCAGAAGGAGAGAAGGACACCGAAAGG [pwkr ssNG2 2FMN + F9.25] (Eterna round: R96, puzzle: Same State NG 2)" target_desc="MS2 coat protein" quantity_kind="apparent KD of MS2 coat protein" value_observed=9.18
chain="GCUACAUGAGGAUCACCCAUGUGUGCGUGGGAGUGAGUGGCUUAGGAUAUCUAUGACUUGAGUUGAGAGAAGGAGGGUUGCUGU [SS-NG3-LRO13] (Eterna round: R96, puzzle: Same State NG 3)" target_desc="MS2 coat protein" quantity_kind="apparent KD of MS2 coat protein" value_observed=53.6

Prompt line: Bench note: what apparent KD of MS2 coat protein did AUGAUUUAUGCAGGAUAUGAUUAACAUGAGGAUCACCCAUGUGGUGUUGUGAGUAAGGAGAGUGAUCAGAAGGGCAUUUUUUUU [JMF's solution 71] (Eterna round: R96, puzzle: Same State NG 2) show?
Response line: 402

Hello, the source for this data is the supplement of paper PMC9170038, in case you need it.
